SYSTEM_TESTED: T1, T9 (Tn-MUC1) (PAPGSTAPPAHGVT(α-GalNAc)S(α-GalNAc)APDTRPAPG-OH)
T1 peptide: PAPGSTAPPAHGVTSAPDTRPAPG
PROCEDURE_SUMMARY: glycopeptide array
Listed binders paired with reported EC50
The response must be a number in µg/mL with no trailing unit.

Some entries whose results are on file:
146 (antibody, V domains shown) VH: QVQLVQSGAEVKKPGASVKVSCKASGYAFTSYYIHWVRQAPGQGLEWMGVINPYGGSTNYAQKFQGRVTMTRDTSTRIVYMDLSSLRSEDTAVYYCARDAMEGDSYFDYWGQGTLVTVSS    0.086
174 (antibody, V domains shown) VH: EVQLVESGAEVKKPGASVKVSCKASGYTFNRYYLHWVRQAPGQGLEWMGVINPYDGSTNYAQKFRGRITMTRDTSTNTVYMELSSLRSEDTAVYFCARDAMEGDSYFDKWGQGTLVTVSS    0.144
41 (antibody, V domains shown) VH: QVQLVQSGAEVKEPGASMTLSCKTSGYTFISNYIHWLRQAPGQGLEWLGVINPFGGATNYAQKFQGRVTMTRDTSTITVYMELSSLRSEDTAVYYCARDAMGGDSHFDYWGQGTLVTVSS    0.113

Kindly consider the entry below.
Identify EC50 associated with the binder 130 (antibody, V domains shown) VH: QVQLVQSGAEVKKPGASVRVSCKASGYTFINYYLQWVRQAPGQGLEWMGTINPFDGSTHYAQKFQGRVTLTRDTSTSTVYMELNSLRSDDTAVYYCARDYMIGYVLFDYWGQGTLVTVSS
0.117
